molecular target: Protein cereblon/Apoptosis regulator Bcl-2 (Homo sapiens, UniProt P10415+Q96SW2); assay: Induction of CRBN-mediated Bcl-2 degradation in human HeLa cells assessed as relative abundance at 10 uM after 12 hrs by Western blot analysis (reference value: 1); type: cell-based
Sequence (P10415 whole entry, looked up): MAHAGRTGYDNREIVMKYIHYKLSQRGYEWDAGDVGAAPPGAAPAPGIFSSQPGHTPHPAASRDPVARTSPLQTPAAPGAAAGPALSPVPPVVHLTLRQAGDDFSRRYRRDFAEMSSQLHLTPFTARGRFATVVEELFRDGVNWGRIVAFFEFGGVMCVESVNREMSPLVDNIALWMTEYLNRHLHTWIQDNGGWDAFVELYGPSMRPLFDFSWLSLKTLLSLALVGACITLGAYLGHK
Sequence (Q96SW2 whole entry, looked up): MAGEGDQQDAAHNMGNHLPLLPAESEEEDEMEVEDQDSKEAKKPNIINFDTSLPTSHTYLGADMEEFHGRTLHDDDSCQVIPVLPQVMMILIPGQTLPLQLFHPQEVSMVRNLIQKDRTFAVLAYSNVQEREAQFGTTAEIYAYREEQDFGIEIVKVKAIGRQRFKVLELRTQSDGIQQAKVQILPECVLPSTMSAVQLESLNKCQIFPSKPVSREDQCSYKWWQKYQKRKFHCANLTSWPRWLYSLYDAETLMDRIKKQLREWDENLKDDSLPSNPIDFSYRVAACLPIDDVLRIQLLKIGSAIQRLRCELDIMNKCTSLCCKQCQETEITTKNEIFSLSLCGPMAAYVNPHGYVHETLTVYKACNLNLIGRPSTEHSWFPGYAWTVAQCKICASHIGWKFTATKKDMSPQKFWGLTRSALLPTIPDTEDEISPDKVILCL
ASSAY_ENDPOINT: fold change (FC)

>>> quantitative_readout("N#CC1=C(NCCC(=O)NCCCCNc2cccc3c2C(=O)N(C2CCC(=O)NC2=O)C3=O)c2ccc(Sc3ccc(Br)cc3)c3cccc(c23)C1=O (centres undefined)")
1
>>> quantitative_readout("O=C(CCCCC(=O)NCCN1C(=O)c2cccc3c(Sc4ccc(Br)cc4)ccc(c23)C1=O)NCCNc1cccc2c1C(=O)N(C1CCC(=O)NC1=O)C2=O (centres undefined)")
1
>>> quantitative_readout("N#CC1=C(NCCC(=O)NCCCCCC(=O)NCCCCCCNc2cccc3c2C(=O)N(C2CCC(=O)NC2=O)C3=O)c2ccc(Sc3ccc(Br)cc3)c3cccc(c23)C1=O (centres undefined)")
1
>>> quantitative_readout("O=C(CCCCC(=O)NCCN1C(=O)c2cccc3c(Sc4ccc(Br)cc4)ccc(c23)C1=O)NCCOCCOCCNc1cccc2c1C(=O)N(C1CCC(=O)NC1=O)C2=O (centres undefined)")
0.1
